Provide the reported activity change, negative = cytotoxicity of each item.
- System: OV90
- assay-details: Primary qHTS to identify gynecologic anti-cancer compounds using libraries of approved drugs and bioactive compounds (AID 1345084); further: on the % scale 0 is the no-effect control and ±100 the full control effect; nearly all actives have a fitted effect of over 55% in size
- details: Gynecologic cancer cell panel viability, ATPlite luminescence, 48 h; series mostly up to 57.5 µM
Records with an inconclusive call do not appear. The source made the active and inactive calls. The call rests on the fitted dose curve; in most records, active means well fitted cell-killing curve with a large enough effect; inconclusive means small, poorly fitted or top-dose-only effect, or effect the other way; inactive means flat fitted curve, though single readings scatter. Where a SMILES comes first, the peptide text is derived from it. [ ]: non-standard residue; d: D form. Hyp = O=C(O)[CH]1C[CH](O)CN1; Phe(ol) = N[CH](CO)Cc1ccccc1; Iva = CC[C](C)(N)C(=O)O; Aib = CC(C)(N)C(=O)O

Noted for CCC(C)(NC(=O)C(CCC(N)=O)NC(=O)C1CC(O)CN1C(=O)C(C)(C)NC(=O)C(C)(C)NC(=O)C(CC(C)C)NC(=O)CNC(=O)C(NC(=O)C(C)(C)NC(=O)C(C)(C)NC(=O)C(C)(C)NC(=O)C(Cc1ccccc1)NC(C)=O)C(C)C)C(=O)N1CC(O)CC1C(=O)NC(C)(C)C(=O)NC(CO)Cc1ccccc1 (configuration not stated) (Ac-F[Aib][Aib][Aib]VGL[Aib][Aib][Hyp]Q[Iva][Hyp][Aib][Phe(ol)]; configuration not given here) : its activity change, negative = cytotoxicity reads -17.1% [at 6.55 µM] (inactive)

So for CC1(C)CCC2(C(=O)OC3OC(COC4OC(CO)C(O)C(O)C4O)C(O)C(O)C3O)CCC3(C)C(=CCC4C5(C)CCC(OC6OCC(O)C(O)C6O)C(C)(C)C5CCC43C)C2C1O (configuration not stated) , the logged activity change, negative = cytotoxicity turned out to be -2.98% [at 11.6 µM] (inactive)

----------
- System: HEK293
- assay-details: Cytotoxic Profiling of Annotated Libraries Using Quantitative High-Throughput Screening (AID 1296008); further: potency means the concentration at half of the fitted maximal effect; nearly all actives have a fitted effect of over 60% in size
- details: Five cell lines viability, CellTiter-Glo ATP luminescence, 48-72 h
Results filed as inconclusive are left out. Calls of active or inactive are those of the source. Calls come from the whole dose curve; as a rule, active = well fitted inhibition curve with a large enough effect; inconclusive = small, poorly fitted or top-dose-only effect; inactive = flat fitted curve, though single readings scatter.
measured-property: Potency

Value sought: Potency, system HEK293, item C/C1=C\[C@@H](C)C[C@@H](C)[C@@H](Cc2cnco2)OC(=O)/C(C)=C/[C@@H](C)C[C@@H](C)[C@@H](Cc2cnco2)OC1=O . Result: 0.632 µM (active)

Note to self: Potency of Cc1cc(N2CCOCC2)ccc1Nc1nc(NC2CCCCC2)c2[nH]cnc2n1 with HEK293 was 0.326 µM (active)

Noted Potency for O=C(NCCCc1ccccc1)c1cccc(-c2cc(O)c3ncccc3c2)c1 , tested on HEK293: 20.6 µM (active)

HEK293 assay, molecule CCOC(=O)[C@@]1(CCCCCCOc2ccc(Cl)cc2)CO1 , recorded Potency = 8.31 µM (active)

Hey, HEK293 data for C=C1CC[C@@H]2[C@](C)(CO)[C@H](O)CC[C@@]2(C)[C@@H]1C/C=C1/C(=O)OCC1O (some centres undefined) : Potency came out at 7.31 µM (active)

Reading of Potency for COc1cc(/C=C2\CCCN([C@@H](C)c3ccc(F)cc3)C2=O)ccc1-n1cnc(C)c1 with HEK293: 13 µM (active)

Measured Potency for this entry C=C1C(=O)O[C@@H]2[C@H]1CC(=O)[C@H](C)[C@@](O)(C(=O)/C=C/C)[C@H]2OC(=O)C(C)CC (some centres undefined) on HEK293: 2.86 µM (active)

With HEK293 as the test system, Cc1nc(NC(=O)N2CCC[C@H]2C(N)=O)sc1-c1ccnc(C(C)(C)C(F)(F)F)c1 showed Potency of 16.4 µM (active)

# value of Potency, HEK293, item COc1cc(O)c2c(c1)C1OC1C[C@H](O)[C@H](O)C(=O)/C=C\C[C@H](C)OC2=O (some centres undefined) = 3.66 µM (active)

Tested system HEK293; Potency recorded for CC(C)S(=O)(=O)NC[C@@H]1CC(c2ccc(N3CCCC3)c(F)c2)=NO1 was 14.6 µM (active)

Value (Potency, HEK293) for record C=CC(=O)N1CCN(C(=O)CNc2cc(-c3ccccc3Cl)c(Cl)cc2OC)CC1 = 18.4 µM (active)

Per the reported HEK293 data, C/C1=C\CCC2=CC(OC2=O)C(C)(C)/C=C/C1=O (centres undefined) has Potency of 6.51 µM (active)

The molecule CCNC(=O)c1noc(-c2cc(Cl)c(O)cc2O)c1-c1ccc(OC)cc1 on HEK293: Potency was 0.206 µM (active)

The observed Potency for C=CC(=O)Nc1ccc2ncnc(Nc3cccc(Br)c3)c2c1 when tested with HEK293 stands at 20.6 µM (active)

Item CNc1ccc([N+](=O)[O-])c(Nc2ccc3[nH]ncc3c2)n1 was tested on HEK293; the reported Potency is 18.4 µM (active)

CCN1CCN(Cc2ccc(NC(=O)c3ccc(C)c(Oc4ccnc5[nH]ccc45)c3)cc2C(F)(F)F)CC1 tested on HEK293 gave Potency: 9.04 µM (active)

Form field, Potency with HEK293, item CC[C@@H](C)Nc1cc(C(=O)NC2CC3CCC(C2)N3c2ccc(C(=O)C3CC3)cn2)c(C)cc1C(N)=O (some centres undefined) : 0.13 µM (active)

Readout Potency for CN(C)CCN(Cc1ccccc1)C(=O)c1cc(-c2ccc(F)cc2)n2nc(C(C)(C)C)cc2n1 , test system HEK293, was 14.6 µM (active)

Bench note, HEK293: CNC1CN(c2ccc3c(=O)c(C(=O)O)cn(-c4nccs4)c3n2)CC1OC (centres undefined) , Potency reads 1.06 µM (active)

Hello, the source for this data is PubChem BioAssay (NCATS), in case you need it.
